All figures here come from paper PMC11124822.

system: NCI-60 human cancer cell lines; test: NCI-60 screen, full panel summary; format: cell-based; settings: 10 µM single dose
quantity.kind: Sensitive/Total Cell Lines

| molecule | quantity.kind | recorded.value |
| --- | --- | --- |
| O=C1Nc2ccc(Cl)cc2C1=Cc1ccc(OCc2ccccc2)cc1 (mixture of isomers) | Sensitive/Total Cell Lines | 0/59 |
| O=C1Nc2ccccc2C1=Cc1ccc(OCc2cccnc2)cc1 (mixture of isomers) | Sensitive/Total Cell Lines | 17/56 |
| O=C1Nc2cc(Cl)ccc2C1=Cc1ccc(OCc2ccccc2)cc1 (mixture of isomers) | Sensitive/Total Cell Lines | 0/59 |
| O=C1Nc2ccc(Cl)cc2C1=Cc1ccc(OCc2ccccn2)cc1 (mixture of isomers) | Sensitive/Total Cell Lines | 18/59 |

Just so you know, measured Sensitive/Total Cell Lines for O=C1Nc2cc(Cl)ccc2C1=Cc1ccc(OCc2cccnc2)cc1 (mixture of isomers) came out at 48/56

Just so you know, measured Sensitive/Total Cell Lines for O=C1Nc2ccccc2C1=Cc1ccc(OCc2ccccc2)cc1 (mixture of isomers) came out at 0/59

Just so you know, measured Sensitive/Total Cell Lines for O=C1Nc2cc(Cl)ccc2C1=Cc1ccc(OCc2ccncc2)cc1 (mixture of isomers) came out at 21/59

Just so you know, measured Sensitive/Total Cell Lines for O=C1Nc2ccccc2C1=Cc1ccc(OCc2ccccn2)cc1 (mixture of isomers) came out at 11/56

###

test system: A549/ATCC; assay: NCI-60 antiproliferative screen (SRB); format: cell-based, human; conditions: Homo sapiens; 10 µM single dose, 48 h; A549/ATCC (NSCLC); read-out: Growth inhibition (%)
In this section, each of the molecules is paired with its reported inhibition at 10 µM.
Numeric answer only, unit % assumed.

| molecule | inhibition at 10 µM (%) |
| --- | --- |
| O=C1Nc2ccc(Cl)cc2C1=Cc1ccc(OCc2ccccn2)cc1 (mixture of isomers) | 35.6 |
| O=C1Nc2ccc(Cl)cc2C1=Cc1ccc(OCc2ccncc2)cc1 (mixture of isomers) | 39.9 |
| O=C1Nc2ccccc2C1=Cc1ccc(OCc2ccccc2)cc1 (mixture of isomers) | -3.26 |
| O=C1Nc2ccc(Cl)cc2C1=Cc1ccc(OCc2cccnc2)cc1 (mixture of isomers) | 16.1 |
| O=C1Nc2cc(Cl)ccc2C1=Cc1ccc(OCc2ccccc2)cc1 (mixture of isomers) | -4.59 |

Just so you know, measured inhibition at 10 µM for O=C1Nc2ccc(F)cc2C1=Cc1ccc(OCc2cccnc2)cc1 (mixture of isomers) came out at 39.4

Just so you know, measured inhibition at 10 µM for O=C1Nc2ccc(F)cc2C1=Cc1ccc(OCc2ccccc2)cc1 (mixture of isomers) came out at 3.9

###

test system: TK-10; assay: NCI-60 antiproliferative screen (SRB); format: cell-based, human; settings: Homo sapiens; 10 µM single dose, 48 h; TK-10 (Renal); read-out: Growth inhibition (%)
quantity.kind: inhibition at 10 µM (%)
Numeric answer only, unit % assumed.

Recorded results for 3 compounds are shown here.
| compound | assay.target | inhibition at 10 µM (%) |
| --- | --- | --- |
| O=C1Nc2ccc(F)cc2C1=Cc1ccc(OCc2ccccc2)cc1 (mixture of isomers) | TK-10 | 4.82 |
| O=C1Nc2cc(Cl)ccc2C1=Cc1ccc(OCc2ccncc2)cc1 (mixture of isomers) | TK-10 | -0.51 |
| O=C1Nc2cc(Cl)ccc2C1=Cc1ccc(OCc2cccnc2)cc1 (mixture of isomers) | TK-10 | 29.4 |

Just so you know, measured inhibition at 10 µM for O=C1Nc2ccc(Cl)cc2C1=Cc1ccc(OCc2ccncc2)cc1 (mixture of isomers) came out at 17.7

Just so you know, measured inhibition at 10 µM for O=C1Nc2ccc(Cl)cc2C1=Cc1ccc(OCc2cccnc2)cc1 (mixture of isomers) came out at -37.8

Just so you know, measured inhibition at 10 µM for O=C1Nc2ccc(F)cc2C1=Cc1ccc(OCc2cccnc2)cc1 (mixture of isomers) came out at -1.92

Just so you know, measured inhibition at 10 µM for O=C1Nc2ccccc2C1=Cc1ccc(OCc2ccccn2)cc1 (mixture of isomers) came out at 12.7

Just so you know, measured inhibition at 10 µM for O=C1Nc2ccc(Cl)cc2C1=Cc1ccc(OCc2ccccc2)cc1 (mixture of isomers) came out at -12.7

###

test system: NCI-60 human cancer cell lines; assay: NCI-60 screen, full panel summary; assay type: cell-based; settings: 10 µM single dose
In this section, each of the compounds is paired with its reported Sensitive/Total Cell Lines.

| compound | assay.target | Sensitive/Total Cell Lines |
| --- | --- | --- |
| O=C1Nc2ccc(Cl)cc2C1=Cc1ccc(OCc2ccncc2)cc1 (mixture of isomers) | NCI-60 human cancer cell lines | 28/59 |
| O=C1Nc2ccc(F)cc2C1=Cc1ccc(OCc2ccccn2)cc1 (mixture of isomers) | NCI-60 human cancer cell lines | 3/59 |

Just so you know, measured Sensitive/Total Cell Lines for O=C1Nc2ccc(F)cc2C1=Cc1ccc(OCc2ccncc2)cc1 (mixture of isomers) came out at 26/59

Just so you know, measured Sensitive/Total Cell Lines for O=C1Nc2ccc(F)cc2C1=Cc1ccc(OCc2ccccc2)cc1 (mixture of isomers) came out at 0/57

Just so you know, measured Sensitive/Total Cell Lines for O=C1Nc2cc(Cl)ccc2C1=Cc1ccc(OCc2ccccn2)cc1 (mixture of isomers) came out at 11/56

Just so you know, measured Sensitive/Total Cell Lines for O=C1Nc2ccc(F)cc2C1=Cc1ccc(OCc2cccnc2)cc1 (mixture of isomers) came out at 33/56

Just so you know, measured Sensitive/Total Cell Lines for O=C1Nc2ccccc2C1=Cc1ccc(OCc2ccncc2)cc1 (mixture of isomers) came out at 14/59

Just so you know, measured Sensitive/Total Cell Lines for O=C1Nc2ccc(Cl)cc2C1=Cc1ccc(OCc2cccnc2)cc1 (mixture of isomers) came out at 5/56

###

In this section, each of the molecules is paired with its reported inhibition at 10 µM.
tested on: T-47D; test: NCI-60 antiproliferative screen (SRB); type: cell-based, human; details: Homo sapiens, T47D; 10 µM single dose, 48 h; T-47D (Breast); read-out: Growth inhibition (%)
Entry format: amount then unit.

Recorded results for 8 molecules are shown here.
| molecule | inhibition at 10 µM |
| --- | --- |
| O=C1Nc2ccc(F)cc2C1=Cc1ccc(OCc2cccnc2)cc1 (mixture of isomers) | 66.7% |
| O=C1Nc2ccc(F)cc2C1=Cc1ccc(OCc2ccccc2)cc1 (mixture of isomers) | 3.79% |
| O=C1Nc2cc(Cl)ccc2C1=Cc1ccc(OCc2ccccc2)cc1 (mixture of isomers) | 4.32% |
| O=C1Nc2cc(Cl)ccc2C1=Cc1ccc(OCc2ccccn2)cc1 (mixture of isomers) | 38% |
| O=C1Nc2ccc(Cl)cc2C1=Cc1ccc(OCc2cccnc2)cc1 (mixture of isomers) | 23.2% |
| O=C1Nc2cc(Cl)ccc2C1=Cc1ccc(OCc2cccnc2)cc1 (mixture of isomers) | 69% |
| O=C1Nc2ccccc2C1=Cc1ccc(OCc2cccnc2)cc1 (mixture of isomers) | 51% |
| O=C1Nc2ccccc2C1=Cc1ccc(OCc2ccccn2)cc1 (mixture of isomers) | 54.9% |

Just so you know, measured inhibition at 10 µM for O=C1Nc2ccc(Cl)cc2C1=Cc1ccc(OCc2ccccn2)cc1 (mixture of isomers) came out at 31%

Just so you know, measured inhibition at 10 µM for O=C1Nc2ccc(Cl)cc2C1=Cc1ccc(OCc2ccncc2)cc1 (mixture of isomers) came out at 61%

Just so you know, measured inhibition at 10 µM for O=C1Nc2ccccc2C1=Cc1ccc(OCc2ccccc2)cc1 (mixture of isomers) came out at 0.85%

Just so you know, measured inhibition at 10 µM for O=C1Nc2ccc(Cl)cc2C1=Cc1ccc(OCc2ccccc2)cc1 (mixture of isomers) came out at 4.11%

Just so you know, measured inhibition at 10 µM for O=C1Nc2ccc(F)cc2C1=Cc1ccc(OCc2ccncc2)cc1 (mixture of isomers) came out at 64.3%

Just so you know, measured inhibition at 10 µM for O=C1Nc2ccc(F)cc2C1=Cc1ccc(OCc2ccccn2)cc1 (mixture of isomers) came out at 60.7%

Just so you know, measured inhibition at 10 µM for O=C1Nc2cc(Cl)ccc2C1=Cc1ccc(OCc2ccncc2)cc1 (mixture of isomers) came out at 67.1%

Just so you know, measured inhibition at 10 µM for O=C1Nc2ccccc2C1=Cc1ccc(OCc2ccncc2)cc1 (mixture of isomers) came out at 65.1%

###

In this section, each of the compounds is paired with its reported inhibition at 10 µM.
system: IGROV1; test: NCI-60 antiproliferative screen (SRB); format: cell-based, human; settings: Homo sapiens, IGROV-1; 10 µM single dose, 48 h; IGROV1 (Ovarian); read-out: Growth inhibition (%)
Numeric answer only, unit % assumed.

Recorded results for 7 compounds are shown here.
| compound | assay.target | unit.spec | inhibition at 10 µM |
| --- | --- | --- | --- |
| O=C1Nc2ccccc2C1=Cc1ccc(OCc2ccccn2)cc1 (mixture of isomers) | IGROV1 | % | 36.8 |
| O=C1Nc2ccccc2C1=Cc1ccc(OCc2ccncc2)cc1 (mixture of isomers) | IGROV1 | % | 25.4 |
| O=C1Nc2cc(Cl)ccc2C1=Cc1ccc(OCc2ccccc2)cc1 (mixture of isomers) | IGROV1 | % | 8.41 |
| O=C1Nc2ccccc2C1=Cc1ccc(OCc2ccccc2)cc1 (mixture of isomers) | IGROV1 | % | -9.53 |
| O=C1Nc2cc(Cl)ccc2C1=Cc1ccc(OCc2ccccn2)cc1 (mixture of isomers) | IGROV1 | % | 26.2 |
| O=C1Nc2ccc(Cl)cc2C1=Cc1ccc(OCc2ccncc2)cc1 (mixture of isomers) | IGROV1 | % | 84.7 |
| O=C1Nc2ccc(Cl)cc2C1=Cc1ccc(OCc2ccccn2)cc1 (mixture of isomers) | IGROV1 | % | 45.4 |

# ---- query compound ----
Just so you know, measured inhibition at 10 µM for O=C1Nc2ccc(Cl)cc2C1=Cc1ccc(OCc2ccccc2)cc1 (mixture of isomers) came out at -5.14
